- MEASURED_TARGET: EPHB1 (UniProt P54762)
- Sequence (P54762 whole entry, looked up): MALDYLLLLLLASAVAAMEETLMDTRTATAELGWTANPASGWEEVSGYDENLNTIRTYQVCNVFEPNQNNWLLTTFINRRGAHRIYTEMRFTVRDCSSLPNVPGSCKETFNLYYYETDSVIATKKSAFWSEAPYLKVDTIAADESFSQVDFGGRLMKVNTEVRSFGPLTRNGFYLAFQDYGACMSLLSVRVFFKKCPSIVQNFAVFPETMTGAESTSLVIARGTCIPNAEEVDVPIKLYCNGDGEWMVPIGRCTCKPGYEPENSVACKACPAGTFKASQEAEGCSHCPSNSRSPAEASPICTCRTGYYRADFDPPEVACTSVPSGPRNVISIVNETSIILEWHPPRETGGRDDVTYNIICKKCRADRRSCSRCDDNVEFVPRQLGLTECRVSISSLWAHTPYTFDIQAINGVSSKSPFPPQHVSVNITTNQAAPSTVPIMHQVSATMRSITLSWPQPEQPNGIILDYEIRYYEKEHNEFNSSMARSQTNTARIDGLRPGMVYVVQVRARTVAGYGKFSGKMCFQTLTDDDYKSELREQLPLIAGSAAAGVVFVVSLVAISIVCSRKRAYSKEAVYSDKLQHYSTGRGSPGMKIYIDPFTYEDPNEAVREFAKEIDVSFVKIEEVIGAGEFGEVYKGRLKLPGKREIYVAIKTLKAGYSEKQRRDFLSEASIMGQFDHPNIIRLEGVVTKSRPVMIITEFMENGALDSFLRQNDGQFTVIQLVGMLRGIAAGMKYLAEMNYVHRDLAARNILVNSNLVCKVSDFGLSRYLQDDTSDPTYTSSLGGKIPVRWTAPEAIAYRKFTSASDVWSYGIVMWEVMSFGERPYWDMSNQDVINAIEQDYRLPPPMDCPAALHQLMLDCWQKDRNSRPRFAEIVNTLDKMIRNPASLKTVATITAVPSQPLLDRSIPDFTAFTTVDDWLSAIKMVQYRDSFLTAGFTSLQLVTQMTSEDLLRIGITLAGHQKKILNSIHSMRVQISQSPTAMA
- ASSAY_INFO: phosphorylation enrichment, bacterial display (enrichment ratio); higher = better substrate or ligand; peptides without Tyr show the background;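 note: 11-residue human phosphosite peptides and single-mutation variants displayed on the E. coli surface, counted by deep sequencing, each peptide's frequency after selection divided by its frequency in the unselected input library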;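 note: frequency after pTyr selection over input frequency; kinase dosed for 20-30% of maximal phosphorylation in three min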
Give class 1 when the value for phosphorylation enrichment is at least 0.7. Give class 0 when it is less.

[[record]]
biosequence = "VKANTYEKYWL [GATM_Y100_P105L]"
category = "class 0"

[[record]]
biosequence = "KFEDVYVRICL [B3GALNT1_Y269_G271R]"
category = "class 0"

[[record]]
biosequence = "KDAGDYKYKAK [LRIT3_Y326_C328Y]"
category = "class 0"

[[record]]
biosequence = "QNTGDYCDLFG [PTPN11_Y62_Y63C_YF]"
category = "class 1"

[[record]]
biosequence = "SGETEYNPTEA [NBEAL2_Y2748]"
category = "class 1"

[[record]]
biosequence = "VNKIYHPDFIV [LIG3_Y768_Y768H]"
category = "class 0"


Quick check: does YTGDIYSSSNL [LZTR1_Y141_N143S] have phosphorylation enrichment greater than or equal to 0.7?
class 1
